Ki for assorted molecules
# testedOn: Mu-type opioid receptor (Homo sapiens)
# Sequence (P35372 whole entry): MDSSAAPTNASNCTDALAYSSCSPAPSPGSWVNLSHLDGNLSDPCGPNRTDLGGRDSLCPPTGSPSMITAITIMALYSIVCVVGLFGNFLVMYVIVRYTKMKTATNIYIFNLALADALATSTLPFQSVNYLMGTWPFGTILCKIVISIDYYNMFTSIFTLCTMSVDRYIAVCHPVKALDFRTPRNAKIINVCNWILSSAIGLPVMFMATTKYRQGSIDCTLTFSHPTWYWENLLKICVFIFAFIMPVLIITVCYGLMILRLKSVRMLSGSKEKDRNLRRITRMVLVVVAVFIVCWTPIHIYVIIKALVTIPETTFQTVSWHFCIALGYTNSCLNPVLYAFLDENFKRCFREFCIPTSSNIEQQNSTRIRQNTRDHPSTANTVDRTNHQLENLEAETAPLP
# assayInfo: Displacement of [3H]-DPN from recombinant human mu opioid receptor expressed in CHO-K1 cell membranes by radioligand binding assay

compoundStructure: CS(=O)(=O)CC(=O)N(CCN1[C@@H]2CC[C@H]1C[C@@H](c1cccc(C(N)=O)c1)C2)CC1CCCCC1
testedOn: Mu-type opioid receptor (Homo sapiens)
Ki / nM: 0.1
--
compoundStructure: CCCCCCN(CCN1[C@@H]2CC[C@H]1C[C@@H](c1cccc(C(N)=O)c1)C2)C(=O)CO
testedOn: Mu-type opioid receptor (Homo sapiens)
Ki / nM: 0.794
--
compoundStructure: CCC(CC)CN(CCCCCCN1[C@@H]2CC[C@H]1C[C@@H](c1cccc(C(N)=O)c1)C2)C(=O)CO
testedOn: Mu-type opioid receptor (Homo sapiens)
Ki / nM: 1
--
compoundStructure: NC(=O)c1cccc([C@H]2C[C@H]3CC[C@@H](C2)N3CCN(CC2CCC(F)(F)CC2)C(=O)CO)c1
testedOn: Mu-type opioid receptor (Homo sapiens)
Ki / nM: 0.126
